Experiment: qHTS to identify inhibitors of the type 1 interferon - major histocompatibility complex class I in skeletal muscle: primary screen against the NCATS Mechanism Interrogation Plate v5.0 (MIPE) Libary (AID 1347411); also: nearly all actives have a fitted effect of over 65% in size
Conditions: iHSKM cells + IFN-b, HiBiT-tagged MHC-I luminescence, 24 h; series mostly up to 45.8 µM
Inconclusive results are not listed. The source made the active and inactive calls. Calls follow the shape of the dose curve; as a rule, active = well fitted inhibition curve with a large enough effect; inconclusive = small, poorly fitted or top-dose-only effect; inactive = no such curve, though single readings can be large or run the other way.
// classify into TRUE (active), FALSE (inactive)

Past entries and their recorded results:
CN(C)c1ccc(C(=C2C=CC(=[N+](C)C)C=C2)c2ccc(N(C)C)cc2)cc1    TRUE
CCC(=O)O[C@]1(C(=O)SCF)[C@H](C)C[C@H]2[C@@H]3C[C@H](F)C4=CC(=O)C=C[C@]4(C)[C@@]3(F)[C@@H](O)C[C@@]21C    FALSE
Cc1nnc(NS(=O)(=O)c2ccc(N)cc2)s1    FALSE
COc1cc(NCc2ccc3nc(N)nc(N)c3c2C)cc(OC)c1OC    TRUE

Request: Hi team, can someone confirm the assay call for NNC(=O)c1ccncc1 ?
Response: FALSE
